Origin of the recorded values: patent US20160355483A1

Molecular target: PPARG (peroxisome proliferator activated receptor-gamma), GST-PPARG-LBD (Homo sapiens)
Construct: 15 μL of 5 nM GST-PPARG-LBD and 5 nM Tb-GST-antibody were added; purchased Invitrogen PV4894
Sequence (P37231 238-503 limits assumed): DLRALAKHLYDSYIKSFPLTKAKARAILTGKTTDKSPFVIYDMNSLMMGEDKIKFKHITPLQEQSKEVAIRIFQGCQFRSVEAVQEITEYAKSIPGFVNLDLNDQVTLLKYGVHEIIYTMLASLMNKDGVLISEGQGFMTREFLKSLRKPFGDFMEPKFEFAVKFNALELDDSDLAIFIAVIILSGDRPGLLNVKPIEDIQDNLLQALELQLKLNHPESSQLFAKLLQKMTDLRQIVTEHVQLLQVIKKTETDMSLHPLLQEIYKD
Test: LanthaScreen TR-FRET PPARG Competitive Binding Assay
Design: key: “+” indicates the degree of the binding activity, and as the number of “+” increases, the binding activity is stronger; ++: “+” indicates the degree of the binding activity, and as the number of “+” increases, the binding activity is stronger; +++: “+” indicates the degree of the binding activity, and as the number of “+” increases, the binding activity is stronger; ++++: “+” indicates the degree of the binding activity, and as the number of “+” increases, the binding activity is stronger
Conditions: degree of binding activity
measured-quantity: Binding assay (1 μLM)

Cc1ccc([C@H](C)NC(=O)c2ccc3c(c2)CCCN3Cc2cccc(-c3ccccc3C(N)=O)c2)cc1F | +++
C[C@H](NC(=O)c1ccc2c(c1)OCCN2Cc1ccccc1-c1ccc(C(N)=O)cc1)c1ccccc1 | ++
C[C@H](NC(=O)c1ccc2c(c1)CCCN2Cc1cc(-c2ccccc2C(N)=O)ccc1F)c1ccc([N+](=O)[O-])cc1 | +++
C[C@H](NC(=O)c1ccc2c(c1)OCCN2Cc1ccc(-c2ccccc2C(=O)O)cc1)c1ccc(F)cc1 | +
C[C@H](NC(=O)c1ccc2c(c1)OCCN2Cc1ccc(-c2ccccc2C(=O)O)cc1)c1ccc(C(C)(C)C)cc1 | ++
COC(=O)c1ccc(CNC(=O)c2ccc3c(c2)OCCN3Cc2ccc(-c3ccccc3C(=O)O)cc2)cc1 | +
O=C(NC1COc2ccccc2C1)c1ccc2c(c1)OCCN2Cc1ccc(-c2ccccc2C(=O)O)cc1 (stereo not shown) | +++
C[C@H](NC(=O)c1ccc2c(c1)CCCN2Cc1cccc(-c2ccccc2C(N)=O)c1F)c1ccccc1 | +++
C[C@H](NC(=O)c1ccc2c(c1)CCCN2Cc1cc(-c2ccccc2C(=O)O)ccc1F)c1ccc([N+](=O)[O-])cc1 | +++
C[C@H](NC(=O)c1ccc2c(c1)OCCN2Cc1ccc(-c2ccccc2C(=O)O)cc1)c1cccc(Cl)c1 | ++
Cc1ccc([C@H](C)NC(=O)c2ccc3c(c2)CCCN3Cc2ccc(-c3ccccc3C(=O)O)cc2F)cc1F | ++++
C[C@H](NC(=O)c1ccc2c(c1)OCCN2Cc1ccc(-c2ccccc2C(=O)O)c(F)c1)c1ccccc1 | +++
C[C@H](NC(=O)c1ccc2c(c1)CCCN2Cc1ccc(-c2ccccc2C(=O)O)cc1)c1cccc(F)c1 | +++
C[C@H](NC(=O)c1ccc2c(c1)OCCN2Cc1ccc(-c2ccccc2C(=O)O)cc1)c1c(F)cccc1F | ++
C[C@H](NC(=O)c1ccc2c(c1)CCCN2Cc1cccc(-c2ccccc2C(=O)O)c1)c1ccccc1 | +++
C[C@H](NC(=O)c1ccc2c(c1)CCCN2Cc1ccccc1-c1ccc(C(=O)O)cc1)c1ccc2ccccc2c1 | +
C[C@H](NC(=O)c1ccc2c(c1)CCCN2Cc1ccc(-c2ccccc2C(=O)O)cc1)c1ccc(F)cc1 | +++
Cc1ccc([C@H](C)NC(=O)c2ccc3c(c2)CCCN3Cc2ccc(-c3ccccc3C(N)=O)cc2F)cc1F | +++
C[C@H](NC(=O)c1ccc2c(c1)OCCN2Cc1ccccc1-c1ccc(C(N)=O)cc1)c1ccc(C#N)cc1 | +
O=C(NCc1ccccc1)c1ccc2c(c1)OCCN2Cc1ccc(-c2ccccc2C(=O)O)cc1 [Example 67] | ++
C[C@H](NC(=O)c1ccc2c(c1)CCCN2Cc1cccc(-c2ccccc2C(=O)O)c1)c1ccc([N+](=O)[O-])cc1 | ++
Cc1ccc([C@H](C)NC(=O)c2ccc3c(c2)CCCN3Cc2ccc(-c3ccccc3C(=O)[O-])cc2)cc1F.[Na+] | ++++
C[C@H](NC(=O)c1ccc2c(c1)OCCN2Cc1ccc(-c2ccccc2C(N)=O)cc1)c1ccccc1 | ++
C[C@H](NC(=O)c1ccc2c(c1)OCCN2Cc1ccc(-c2ccccc2C(N)=O)cc1)c1cccc(F)c1 | +++
C[C@H](NC(=O)c1ccc2c(c1)CCCN2Cc1cccc(-c2ccccc2C(N)=O)c1)c1ccc2ccccc2c1 | ++++
C[C@H](NC(=O)c1ccc2c(c1)OCCN2Cc1ccc(-c2ccccc2C(=O)[O-])cc1)c1ccc([N+](=O)[O-])cc1.[Na+] | +
NC(=O)c1ccccc1-c1ccc(CN2CCCc3cc(C(=O)NCc4ccccc4Br)ccc32)cc1 | +++
C[C@H](NC(=O)c1ccc2c(c1)CCCN2Cc1cc(-c2ccccc2C(=O)O)ccc1F)c1ccc2ccccc2c1 | ++++

---

target: CYP 3A4 (Homo sapiens, UniProt P08684); construct: purchased BD GENTEST 459500; assay: CYP (cytochrome P450)-suppressing effect, BD GENTEST kit; assay type: in vitro ADME
Sequence (P08684 whole entry): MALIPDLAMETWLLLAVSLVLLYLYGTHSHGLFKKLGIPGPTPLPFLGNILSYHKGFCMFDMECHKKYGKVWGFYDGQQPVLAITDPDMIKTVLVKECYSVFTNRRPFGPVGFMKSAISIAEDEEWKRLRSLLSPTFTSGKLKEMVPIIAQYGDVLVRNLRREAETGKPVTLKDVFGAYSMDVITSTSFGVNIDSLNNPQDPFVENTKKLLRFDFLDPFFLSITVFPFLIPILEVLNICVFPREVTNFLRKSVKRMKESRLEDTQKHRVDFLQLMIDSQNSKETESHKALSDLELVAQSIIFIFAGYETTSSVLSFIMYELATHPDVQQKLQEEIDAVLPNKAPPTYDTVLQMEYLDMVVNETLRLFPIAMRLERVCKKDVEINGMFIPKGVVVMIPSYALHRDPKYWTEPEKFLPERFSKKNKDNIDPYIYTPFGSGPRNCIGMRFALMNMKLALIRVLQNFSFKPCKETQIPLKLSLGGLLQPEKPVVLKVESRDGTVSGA
Classify: Condition met when CYP(10 μL, %) 3A4 is strictly less than 80%; Condition not met when CYP(10 μL, %) 3A4 is not.

C[C@H](NC(=O)c1ccc2c(c1)CCCN2Cc1ccc(-c2ccccc2C(N)=O)cc1F)c1ccc([N+](=O)[O-])cc1 [Example 113] | Condition not met
C[C@H](NC(=O)c1ccc2c(c1)CCCN2Cc1ccc(-c2ccccc2C(=O)O)cc1F)c1ccc(C#N)cc1 [Example 110] | Condition met
C[C@H](NC(=O)c1ccc2c(c1)CCCN2Cc1cccc(-c2ccccc2C(N)=O)c1)c1ccc([N+](=O)[O-])cc1 [Example 123] | Condition met
Cc1c(C)n(Cc2ccc(-c3ccccc3C(=O)O)cc2)c2ccc(C(=O)NC(C)c3ccc(Br)cc3)cc12 (stereo not shown) [2 (SR1824), SR1824, reference compound] | Condition met
C[C@H](NC(=O)c1ccc2c(c1)OCCN2Cc1ccc(-c2ccccc2C(=O)O)cc1)c1ccccc1 [Example 58] | Condition met
C[C@H](NC(=O)c1ccc2c(c1)OCCN2Cc1ccc(-c2ccccc2C(N)=O)cc1)c1ccc2ccccc2c1 [Example 96] | Condition not met

---

Target: PPARG (peroxisome proliferator activated receptor-gamma), GST-PPARG-LBD (Homo sapiens, UniProt P37231)
Construct: 15 μL of 5 nM GST-PPARG-LBD and 5 nM Tb-GST-antibody were added; purchased Invitrogen PV4894
Sequence (P37231 238-503 limits assumed): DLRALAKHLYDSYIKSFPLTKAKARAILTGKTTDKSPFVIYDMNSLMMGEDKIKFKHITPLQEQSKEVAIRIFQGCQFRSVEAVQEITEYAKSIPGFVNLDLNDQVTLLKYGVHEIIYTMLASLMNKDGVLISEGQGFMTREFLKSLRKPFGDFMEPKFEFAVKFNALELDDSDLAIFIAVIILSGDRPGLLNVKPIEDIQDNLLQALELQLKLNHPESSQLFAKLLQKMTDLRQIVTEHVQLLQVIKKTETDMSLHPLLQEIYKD
Assay: LanthaScreen TR-FRET PPARG Competitive Binding Assay
Parameters: key: “+” indicates the degree of the binding activity, and as the number of “+” increases, the binding activity is stronger; ++: “+” indicates the degree of the binding activity, and as the number of “+” increases, the binding activity is stronger; +++: “+” indicates the degree of the binding activity, and as the number of “+” increases, the binding activity is stronger; ++++: “+” indicates the degree of the binding activity, and as the number of “+” increases, the binding activity is stronger
Conditions: degree of binding activity
measured-quantity: Binding assay (1 μLM)

Cc1ccc([C@H](C)NC(=O)c2ccc3c(c2)CCCN3Cc2cccc(-c3ccccc3C(N)=O)c2F)cc1F | +++
Cc1ccc([C@H](C)NC(=O)c2ccc3c(c2)CCCN3Cc2cccc(-c3ccccc3C(=O)O)c2)cc1F | +++
O=C(NC1COc2ccccc2C1)c1ccc2c(c1)CCCN2Cc1ccc(-c2ccccc2C(=O)O)cc1 (stereo not shown) | +
C[C@H](NC(=O)c1ccc2c(c1)OCCN2Cc1ccc(-c2ccccc2C(=O)O)cc1)c1ccc(Br)cc1 | ++
C[C@@H](NC(=O)c1ccc2c(c1)OCCN2Cc1ccc(-c2ccccc2C(N)=O)cc1)c1ccc(C#N)cc1 | ++
C[C@H](NC(=O)c1ccc2c(c1)OCCN2Cc1ccccc1-c1ccc(C(N)=O)cc1)c1ccc([N+](=O)[O-])cc1 | ++
C[C@H](NC(=O)c1ccc2c(c1)CCCN2Cc1cccc(-c2ccccc2C(N)=O)c1)c1ccccc1 | +++

---

Molecular target: CYP 2C9 (Homo sapiens, UniProt P11712)
Construct: purchased Invitrogen P2861
Sequence (P11712 whole entry): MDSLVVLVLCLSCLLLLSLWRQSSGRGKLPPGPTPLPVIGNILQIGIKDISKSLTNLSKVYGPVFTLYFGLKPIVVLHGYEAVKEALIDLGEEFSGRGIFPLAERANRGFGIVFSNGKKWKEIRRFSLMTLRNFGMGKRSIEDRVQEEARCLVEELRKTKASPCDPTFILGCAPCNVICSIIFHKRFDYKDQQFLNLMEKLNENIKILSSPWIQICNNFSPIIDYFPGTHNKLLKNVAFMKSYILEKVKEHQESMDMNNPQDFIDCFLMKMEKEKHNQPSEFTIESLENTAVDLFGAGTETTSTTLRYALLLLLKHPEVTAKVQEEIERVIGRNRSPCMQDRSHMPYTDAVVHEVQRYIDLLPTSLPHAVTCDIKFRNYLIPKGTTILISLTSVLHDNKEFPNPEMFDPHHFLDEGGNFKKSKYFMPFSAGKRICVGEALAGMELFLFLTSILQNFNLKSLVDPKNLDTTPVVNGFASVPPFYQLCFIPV
Experiment: CYP (cytochrome P450)-suppressing effect, Invitrogen Vivid kit
Type: in vitro ADME
Description: To evaluate the CYP (cytochrome P450)-suppressing activity of the compounds prepared in the examples of the invention, the following experiment was performed. […] The test results were calculated by the following formula: (1−(fluorescence value of the test material/fluorescence value of the vehicle))×100%.
Exam item: assign 1 (yes) to entries whose CYP(10 μL, %) 2C9 is below 60% and 0 (no) to entries at or above 60%. Note that a value of exactly 60% receives 0 (no).

Cc1c(C)n(Cc2ccc(-c3ccccc3C(=O)O)cc2)c2ccc(C(=O)NC(C)c3ccc(Br)cc3)cc12 (stereo not shown) [2 (SR1824), SR1824, reference compound] | 1 (yes)
C[C@H](NC(=O)c1ccc2c(c1)CCCN2Cc1ccc(-c2ccccc2C(N)=O)cc1F)c1ccc([N+](=O)[O-])cc1 | 0 (no)
C[C@H](NC(=O)c1ccc2c(c1)CCCN2Cc1cc(-c2ccccc2C(N)=O)ccc1F)c1ccc([N+](=O)[O-])cc1 | 0 (no)
C[C@H](NC(=O)c1ccc2c(c1)CCCN2Cc1ccc(-c2ccccc2C(=O)O)cc1F)c1ccc(C#N)cc1 | 1 (yes)
Cc1ccc([C@H](C)NC(=O)c2ccc3c(c2)CCCN3Cc2ccc(-c3ccccc3C(=O)[O-])cc2)cc1F.[Na+] | 1 (yes)
C[C@H](NC(=O)c1ccc2c(c1)CCCN2Cc1cccc(-c2ccccc2C(=O)O)c1)c1ccc(C#N)cc1 | 1 (yes)
C[C@H](NC(=O)c1ccc2c(c1)CCCN2Cc1ccc(-c2ccccc2C(N)=O)cc1)c1ccc2ccccc2c1 | 1 (yes)
